Hello, the source for this data is ChEMBL document CHEMBL4359834, in case you need it.

# testDetails: cells
# settings: Homo sapiens, A2058, 1 h
# Description: Inhibition of Class 1 PI3K/mTOR in human A2058 cells assessed as reduction in S6 phosphorylation at Ser235/236 residue incubated for 1 hr by InCell Western assay
pIC50: −log10 of the molar value.
recordedEndpoint: pIC50

Known pIC50 results, listed for orientation:
> print(dat)
                                   compound  valuereported
1  Nc1cc(C(F)(F)F)c(-c2nc(N3CCOCC3)nc(N3C4CCC3COC4)n2)cn1           6.81
2  C[C@H]1COCCN1c1cc(-c2cnc(N)cc2C(F)F)nc(N2CCOCC2)n1           6.12

1. Nc1cc(C(F)(F)F)c(-c2nc(N3CC4CCC(C3)O4)nc(N3CC4CCC(C3)O4)n2)cn1
2. C[C@H]1COCCN1c1nc(-c2cnc(N)cc2C(F)F)cc(N2CCOCC2)n1
3. Nc1cc(C(F)(F)F)c(-c2nc(N3CCOCC3)nc(N3CC4CCC(C3)O4)n2)cn1
Inquiry: Falling order of pIC50, please. Hello, could you send the labels back in the order asked? Thank you.
Reply text: 2, 3, 1
